Taken from patent US20230285583A1.

- Target: T1, human GIP receptor (human, UniProt P48546 22-466)
- T1 sequence (looked up): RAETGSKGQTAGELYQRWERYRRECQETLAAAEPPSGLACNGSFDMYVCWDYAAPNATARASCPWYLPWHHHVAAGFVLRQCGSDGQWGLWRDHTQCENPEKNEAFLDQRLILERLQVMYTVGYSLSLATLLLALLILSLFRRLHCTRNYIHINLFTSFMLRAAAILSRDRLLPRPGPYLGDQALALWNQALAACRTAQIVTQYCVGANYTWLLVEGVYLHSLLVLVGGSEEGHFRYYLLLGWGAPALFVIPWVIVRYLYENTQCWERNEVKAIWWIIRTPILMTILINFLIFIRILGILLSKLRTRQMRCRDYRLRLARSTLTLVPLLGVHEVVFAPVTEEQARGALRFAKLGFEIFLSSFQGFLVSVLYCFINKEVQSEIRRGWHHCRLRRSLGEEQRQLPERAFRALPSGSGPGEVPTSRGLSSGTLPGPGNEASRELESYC
- Assay remarks: cell-based or functional assay
Bridge positions count the residues as written; N and C are the ends. Square brackets hold non-standard residues; d marks the D form. Ends that are not written are not given here. Aib = CC(C)(N)C(=O)O
Property label: In Vitro Activity Compared to Native Peptide (%) vs. GIP (relative titer from cAMP EC50)
Answer format: numeric, % implied, no suffix.

Below, 4 binders whose answers are already recorded.
Binder	Unit	Quantitative readout
H[Aib]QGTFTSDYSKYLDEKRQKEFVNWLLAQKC (bridge 16-20; not fully specified (bridges)) [trigonal agonist of SEQ ID NO: 6]	%	0.6
Y[Aib]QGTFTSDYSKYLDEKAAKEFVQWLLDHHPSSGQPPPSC (bridge 16-20; not fully specified (bridges)) [trigonal agonist of SEQ ID NO: 30]	%	18
Y[Aib]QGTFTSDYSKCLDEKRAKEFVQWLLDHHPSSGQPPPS (bridge 16-20; not fully specified (bridges)) [trigonal agonist of SEQ ID NO: 2]	%	59.7
H[Aib]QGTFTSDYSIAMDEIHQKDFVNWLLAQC (lactam 16-20) [trigonal agonist of SEQ ID NO: 16]	%	2.4

Kindly consider the entry below.
// sample H[Aib]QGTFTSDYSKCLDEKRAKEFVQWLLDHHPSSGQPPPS (bridge 16-20; not fully specified (bridges)) [trigonal agonist of SEQ ID NO: 20] , its In Vitro Activity Compared to Native Peptide (%) vs. GIP (relative titer from cAMP EC50) was 11.6
